Experiment: probe aWnt5a binding to arrayed compounds – biochemical, biotinylated probe, 635/667 nm fluorescence, primary screen (AID 1113);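 further: score merges 667 nm fluorescence intensity with signal-to-noise per printed feature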
Details: small-molecule microarray, higher = more signal

Compound | composite z-score
O=C(NC1CC1)[C@@H]1c2ccccc2C(=O)N(C2Cc3ccccc3C2)[C@H]1c1ccc(CO)cc1 | -0.0512
CC[C@@H]1C=C(C(=O)O)[C@H](c2ccc(C)cc2)N1S(=O)(=O)c1ccc(C)cc1 | -0.096
C#CCN1[C@@H](Cc2ccc(O)cc2)C(=O)O[C@H](Cc2ccccc2)[C@@H]1/C=C/C1CC1 | -0.18
COC(=O)[C@@]1(Cc2ccccc2)[C@H]2c3cc(C(=O)N4CCCC4)n(Cc4c(CO)[nH]cc(C)c4=O)c3C[C@H]2CN1C(=O)c1ccccc1 | 0.0775
O=C1C2C=CC(C(O)c3cc(C(F)(F)F)cc(C(F)(F)F)c3)N(Nc3ccccc3)C2C(=O)N1c1ccccc1 (stereo not drawn) | -0.0425
O=C(NCCN1CCOCC1)[C@@H]1c2ccccc2C(=O)N(Cc2cc(C(F)(F)F)cc(C(F)(F)F)c2)[C@H]1c1ccc(CO)cc1 | -0.0161
CCOc1ccc(N2C(=O)CSC2c2cccc([N+](=O)[O-])c2)cc1 (stereo not drawn) | -0.0383
[N-]=[N+]=Nc1ccccc1C[C@]1(C(=O)NCc2ccccc2)N=C(c2ccc(OCCCO)cc2)O[C@H]1c1ccccc1N=[N+]=[N-] | 0.164

* * *

Experiment: JC-1 mitochondrial signal, unstimulated MM1S myeloma – cell-based, JC-1 fluorescence, 24 h, 100 nL compound, profiling panel (AID 1170); further: test concentration not given here
Settings: MM1S mitochondrial potential, higher = more signal
Parameter threshold = -0.5. Response is true when z-score meets or exceeds it, else false.

Molecule | Label Class
C=CC[C@]1(C(=O)NCc2ccccc2)N=C(c2ccc(OCCCO)cc2)O[C@H]1c1ccccc1CN=[N+]=[N-] | true
CCCCCCc1nc(-c2ccc(-c3ccc(Cl)c(Cl)c3)o2)cc2c1[Si](C(C)C)(C(C)C)O[C@H]2c1ccccc1 | true
O=C1NC(=O)C2C1C=CC(C(O)c1ccc(I)cc1)N2Nc1ccccn1 (stereo not drawn) | true
O=C1NC(=O)C2C1C=CC(C(O)c1ccc(I)cc1)N2Nc1ccc(Cl)cc1Cl (stereo not drawn) | false
COCC(=C=CC[C@H](O)c1cccc(OCCO)c1)CCO | true
COC(=O)c1c(CC[C@@H](CO)NC(=O)N[C@H](Cc2ccccc2)Cn2cc(-c3ccccn3)nn2)oc(C(C)=O)c1C(=O)OC | true
COCCCNC(=O)[C@]1(Cc2ccccc2)N=C(c2ccc(OCCCO)cc2)O[C@@H]1c1ccccc1CN=[N+]=[N-] | false
C#CCN(C/C=C/c1ccccc1)[C@H](CO)c1ccccc1 | true

* * *

Catalogue of composite z-score readings, one per entry.
Experiment: probe aLefty2 binding to arrayed compounds – biochemical, biotinylated probe, 635/667 nm fluorescence, primary screen (AID 1094);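 further: score merges spot fluorescence near 667 nm with spot signal-to-noise ratio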
Settings: small-molecule microarray, higher = more signal

Compound | composite z-score
[N-]=[N+]=NCc1ccccc1[C@@H]1OC(c2ccc(OCCCO)cc2)=N[C@]1(CCS(=O)(=O)c1ccccc1)C(=O)N1CCOCC1 | 0.456
O=C(O)[C@@]1(CCS(=O)(=O)c2ccccc2)N=C(c2ccc(OCCCO)cc2)O[C@H]1c1ccccc1 | 0.16
CCOC(=O)C[C@H]1[C@H](OC(=O)c2ccc(-c3ccccc3)cc2)[C@@H](NC(=O)c2ccccc2)c2cc(OCCCO)ccc2N1C(=O)c1ccc2ccccc2n1 | 0.0769
Cc1ccc(/C=C/C=O)cc1 | -0.123
CC(C)[Si](C#CCCCC#N)(Oc1ccccc1Br)C(C)C | -0.203
O=C(NC1CC1)[C@@H]1c2ccccc2C(=O)N(Cc2cc(F)cc(C(F)(F)F)c2)[C@H]1c1ccc(CO)cc1 | 0.0351
CC(C)CCC[C@@H](C)[C@H]1CC[C@@]2(C)C3=C(CC[C@]12C)[C@@]1(C)CC[C@H](OC(=O)c2ccc(C(F)(F)F)nc2)C(C)(C)C1CC3 (stereo partly drawn) | -0.233
NC(=O)[C@@H]1[C@H]2C(=O)O[C@H](c3ccccc3)[C@H](c3ccccc3)N2[C@H](c2ccc(O)cc2)[C@@]12C(=O)Nc1ccc(C#CC3=CCCCC3)cc12 | -0.21
